# Assay Overview: Dye hue from spectrophotometric curves: λ-max, half band width, curve shape factor
# Measurement Conditions: Table I; coupler solvent CS-2; developer D-3

Molecule	λ-max (maximum absorption peak of dye)
CCCCCCCCCCCCC(Oc1ccc(O)c(C(C)(C)C)c1)C(=O)Nc1ccc(Cl)c(NC2=NN(c3c(Cl)cc(Cl)cc3Cl)C(=O)C2)c1 (centres unmarked) [CC-2, reference compound]	545
CCCCCCCCCCC(Oc1ccc(S(=O)(=O)c2ccc(O)cc2)cc1)C(=O)Nc1ccc(CCCc2n[nH]c3cc(C)nn23)cc1 (centres unmarked)	550
CCCCCCCCCCC(Oc1ccc(S(=O)(=O)c2ccc(O)cc2)cc1)C(=O)Nc1ccc(Cl)c(NC2=NN(c3c(Cl)cc(Cl)cc3Cl)C(=O)C2)c1 (centres unmarked)	549
CCCCCCCCCCC(Oc1ccc(S(=O)(=O)c2ccc(O)cc2)cc1)C(=O)Nc1ccc(Cl)c(NC2=NN(c3c(Cl)cc(Cl)cc3Cl)C(=O)C2SCCCCCCC)c1 (centres unmarked)	545
CCC(C)(C)c1ccc(OCC(=O)Nc2cccc(C(=O)NC3=NN(c4c(Cl)cc(Cl)cc4Cl)C(=O)C3)c2)c(C(C)(C)CC)c1 [CC-3, reference compound]	556

###

# Assay Overview: Dye hue from spectrophotometric curves: λ-max, half band width, curve shape factor
# Measurement Conditions: Table I; coupler solvent CS-3; developer D-2
Form field: λ-max (maximum absorption peak of dye) (one value per entry).

Compound	λ-max (maximum absorption peak of dye)
CCCCCCCCCCC(Oc1ccc(S(=O)(=O)c2ccc(O)cc2)cc1)C(=O)Nc1cc(Cl)c(CC)c(Cl)c1O (stereo not drawn)	675
CCc1c(Cl)cc(NC(=O)C(CC)Oc2ccc(C(C)(C)CC)cc2C(C)(C)CC)c(O)c1Cl (stereo not drawn) [CC-4, reference compound]	659
CCC(C)(C)c1ccc(OCCCC(=O)Nc2ccc(Cl)c(NC(=O)C(Oc3ccc(S(=O)(=O)c4ccc(OCc5ccccc5)cc4)cc3)C(=O)C(C)(C)C)c2)c(C(C)(C)CC)c1 (stereo not drawn) [CC-6, reference compound]	441
CCCCC(Oc1ccc(S(=O)(=O)c2ccc(O)cc2)cc1)C(=O)Nc1cccc(NC(=O)C(Oc2ccc(S(=O)(=O)c3ccc(O)cc3)cc2)C(=O)C(C)(C)C)c1 (stereo not drawn)	441
CC(C)(C)C(=O)C(Oc1ccc(S(=O)(=O)c2ccc(OCc3ccccc3)cc2)cc1)C(=O)Nc1cc(NS(=O)(=O)c2ccc(O)cc2)ccc1Cl (stereo not drawn)	449
CCCCC(Oc1ccc(S(=O)(=O)c2ccc(O)cc2)cc1)C(=O)Nc1ccc(Cl)c(NC(=O)C(Oc2ccc(S(=O)(=O)c3ccc(O)cc3)cc2)C(=O)C(C)(C)C)c1 (stereo not drawn)	445
CCCCC(Oc1ccc(S(=O)(=O)c2ccc(OCc3ccccc3)cc2)cc1)C(=O)Nc1cccc(NC(=O)C(Oc2ccc(S(=O)(=O)c3ccc(O)cc3)cc2)C(=O)C(C)(C)C)c1 (stereo not drawn) [CC-8, reference compound]	439
CCCCCCCCCCCCCCCCS(=O)(=O)Nc1ccc(Cl)c(NC(=O)C(Oc2ccc(S(=O)(=O)c3ccc(OCc4ccccc4)cc3)cc2)C(=O)C(C)(C)C)c1 (stereo not drawn) [CC-5, reference compound]	446
CCCCC(Oc1ccc(S(=O)(=O)c2ccc(OCc3ccccc3)cc2)cc1)C(=O)Nc1ccc(Cl)c(NC(=O)C(Oc2ccc(S(=O)(=O)c3ccc(O)cc3)cc2)C(=O)C(C)(C)C)c1 (stereo not drawn) [CC-7, reference compound]	445
